# MEASUREMENT CONTEXT: 333.15 K; 101.33 kPa; Liquid; Concentric cylinders viscometry
Label true for high-side viscosity (at or above 20 mPa·s) and false for low-side viscosity (below it).

| SMILES CODE | LABEL VALUE |
| --- | --- |
| COCC[N+]1(C)CCOCC1.O=S(=O)([N-]S(=O)(=O)C(F)(F)F)C(F)(F)F | true |
| CC[N+](C)(C)CCOC.O=S(=O)([N-]S(=O)(=O)C(F)(F)F)C(F)(F)F | false |
| CCC[N+](C)(C)CC.O=S(=O)([N-]S(=O)(=O)C(F)(F)F)C(F)(F)F | true |

* * *

Listing of entries alongside the reported viscosity.
# MEASUREMENT CONTEXT: 343.15 K; 101.33 kPa; Liquid; Concentric cylinders viscometry
REPORTED PROPERTY: viscosity (mPa·s)

| SMILES CODE | UNIT DESCRIPTOR | RECORDED NUMBER |
| --- | --- | --- |
| COCC[N+]1(C)CCOCC1.O=S(=O)([N-]S(=O)(=O)C(F)(F)F)C(F)(F)F | mPa·s | 37.49 |
| COCC[N+]1(C)CCCC1.O=S(=O)([N-]S(=O)(=O)C(F)(F)F)C(F)(F)F | mPa·s | 16.8 |
| COCC[N+]1(C)CCCCC1.O=S(=O)([N-]S(=O)(=O)C(F)(F)F)C(F)(F)F | mPa·s | 15.6 |
| CC[N+](C)(C)CCOC.O=S(=O)([N-]S(=O)(=O)C(F)(F)F)C(F)(F)F | mPa·s | 15 |
| CCC[N+](C)(C)CC.O=S(=O)([N-]S(=O)(=O)C(F)(F)F)C(F)(F)F | mPa·s | 17.1 |

* * *

Quick list: electrical conductivity per entry.
# MEASUREMENT CONTEXT: 333.15 K; 101.33 kPa; Liquid; Direct current cell with electrodes

| SMILES CODE | electrical conductivity [S/m] |
| --- | --- |
| CC[N+](C)(C)CCOC.O=S(=O)([N-]S(=O)(=O)C(F)(F)F)C(F)(F)F | 0.465 |
| COCC[N+]1(C)CCCC1.O=S(=O)([N-]S(=O)(=O)C(F)(F)F)C(F)(F)F | 0.59 |
| CCC[N+](C)(C)CC.O=S(=O)([N-]S(=O)(=O)C(F)(F)F)C(F)(F)F | 0.414 |
| COCC[N+]1(C)CCCCC1.O=S(=O)([N-]S(=O)(=O)C(F)(F)F)C(F)(F)F | 0.396 |
| COCC[N+]1(C)CCOCC1.O=S(=O)([N-]S(=O)(=O)C(F)(F)F)C(F)(F)F | 0.17 |

* * *

# MEASUREMENT CONTEXT: 303.15 K; 101.33 kPa; Liquid; Direct current cell with electrodes
Lab note: compare electrical conductivity with 0.3 S/m, writing 1.0 if less and 0.0 if equal or more.

| SMILES CODE | LABEL VALUE |
| --- | --- |
| COCC[N+]1(C)CCOCC1.O=S(=O)([N-]S(=O)(=O)C(F)(F)F)C(F)(F)F | 1.0 |
| COCC[N+]1(C)CCCC1.O=S(=O)([N-]S(=O)(=O)C(F)(F)F)C(F)(F)F | 0.0 |
| CCC[N+](C)(C)CC.O=S(=O)([N-]S(=O)(=O)C(F)(F)F)C(F)(F)F | 1.0 |
| CC[N+](C)(C)CCOC.O=S(=O)([N-]S(=O)(=O)C(F)(F)F)C(F)(F)F | 0.0 |
| COCC[N+]1(C)CCCCC1.O=S(=O)([N-]S(=O)(=O)C(F)(F)F)C(F)(F)F | 1.0 |

* * *

# MEASUREMENT CONTEXT: 353.15 K; 101.33 kPa; Liquid; Direct current cell with electrodes

| SMILES CODE | electrical conductivity |
| --- | --- |
| COCC[N+]1(C)CCCC1.O=S(=O)([N-]S(=O)(=O)C(F)(F)F)C(F)(F)F | 0.699 S/m |
| COCC[N+]1(C)CCOCC1.O=S(=O)([N-]S(=O)(=O)C(F)(F)F)C(F)(F)F | 0.334 S/m |
| CC[N+](C)(C)CCOC.O=S(=O)([N-]S(=O)(=O)C(F)(F)F)C(F)(F)F | 0.633 S/m |
| COCC[N+]1(C)CCCCC1.O=S(=O)([N-]S(=O)(=O)C(F)(F)F)C(F)(F)F | 0.599 S/m |
| CCC[N+](C)(C)CC.O=S(=O)([N-]S(=O)(=O)C(F)(F)F)C(F)(F)F | 0.634 S/m |

* * *

Listing: mass density of selected molecules
# MEASUREMENT CONTEXT: 323.15 K; 101.33 kPa; Liquid; Vibrating tube method

| SMILES CODE | UNIT DESCRIPTOR | mass density |
| --- | --- | --- |
| CCC[N+](C)(C)CC.O=S(=O)([N-]S(=O)(=O)C(F)(F)F)C(F)(F)F | kg/m3 | 1381 |
| COCC[N+]1(C)CCOCC1.O=S(=O)([N-]S(=O)(=O)C(F)(F)F)C(F)(F)F | kg/m3 | 1477.2 |
| COCC[N+]1(C)CCCCC1.O=S(=O)([N-]S(=O)(=O)C(F)(F)F)C(F)(F)F | kg/m3 | 1410.7 |
| COCC[N+]1(C)CCCC1.O=S(=O)([N-]S(=O)(=O)C(F)(F)F)C(F)(F)F | kg/m3 | 1429.9 |
| CC[N+](C)(C)CCOC.O=S(=O)([N-]S(=O)(=O)C(F)(F)F)C(F)(F)F | kg/m3 | 1401.5 |

* * *

// reported mass density for each item listed
# MEASUREMENT CONTEXT: 343.15 K; 101.33 kPa; Liquid; Vibrating tube method
Numbers after ± are expanded uncertainties.
REPORTED PROPERTY: mass density

| SMILES CODE | RESULT |
| --- | --- |
| COCC[N+]1(C)CCOCC1.O=S(=O)([N-]S(=O)(=O)C(F)(F)F)C(F)(F)F | 1458.9 ± 1.9 kg/m3 |
| CC[N+](C)(C)CCOC.O=S(=O)([N-]S(=O)(=O)C(F)(F)F)C(F)(F)F | 1379.2 ± 1.7 kg/m3 |
| CCC[N+](C)(C)CC.O=S(=O)([N-]S(=O)(=O)C(F)(F)F)C(F)(F)F | 1362.4 ± 1.7 kg/m3 |
| COCC[N+]1(C)CCCCC1.O=S(=O)([N-]S(=O)(=O)C(F)(F)F)C(F)(F)F | 1392.5 ± 1.8 kg/m3 |
| COCC[N+]1(C)CCCC1.O=S(=O)([N-]S(=O)(=O)C(F)(F)F)C(F)(F)F | 1411.2 ± 1.8 kg/m3 |

* * *

Below, each of the compounds is paired with its reported viscosity value.
# MEASUREMENT CONTEXT: 353.15 K; 101.33 kPa; Liquid; Concentric cylinders viscometry
REPORTED PROPERTY: viscosity (mPa·s)

| SMILES CODE | RECORDED NUMBER |
| --- | --- |
| CC[N+](C)(C)CCOC.O=S(=O)([N-]S(=O)(=O)C(F)(F)F)C(F)(F)F | 13.2 |
| COCC[N+]1(C)CCCCC1.O=S(=O)([N-]S(=O)(=O)C(F)(F)F)C(F)(F)F | 13.8 |
| COCC[N+]1(C)CCOCC1.O=S(=O)([N-]S(=O)(=O)C(F)(F)F)C(F)(F)F | 27.59 |
| COCC[N+]1(C)CCCC1.O=S(=O)([N-]S(=O)(=O)C(F)(F)F)C(F)(F)F | 13.5 |
| CCC[N+](C)(C)CC.O=S(=O)([N-]S(=O)(=O)C(F)(F)F)C(F)(F)F | 14.1 |

* * *

# MEASUREMENT CONTEXT: 343.15 K, Ring tensiometer
Overview of recorded surface tension liquid-gas for various compounds

| SMILES CODE | surface tension liquid-gas / mN/m |
| --- | --- |
| CCC[N+](C)(C)CC.O=S(=O)([N-]S(=O)(=O)C(F)(F)F)C(F)(F)F | 42.03 |
| CC[N+](C)(C)CCOC.O=S(=O)([N-]S(=O)(=O)C(F)(F)F)C(F)(F)F | 42.23 |
| COCC[N+]1(C)CCOCC1.O=S(=O)([N-]S(=O)(=O)C(F)(F)F)C(F)(F)F | 45.36 |
| COCC[N+]1(C)CCCC1.O=S(=O)([N-]S(=O)(=O)C(F)(F)F)C(F)(F)F | 44.26 |
| COCC[N+]1(C)CCCCC1.O=S(=O)([N-]S(=O)(=O)C(F)(F)F)C(F)(F)F | 40.19 |

Measured values drawn from the NIST ThermoML archive (doi:10.1016/j.fluid.2016.06.028) for this set.
